System: HCT116
Assay: efficacy (fitted maximal change in viability relative to DMSO control); higher = less cytotoxic (negative = loss of viability)
Conditions: 48 h
Quantity Kind: efficacy
Please state the value followed by its unit.

Consider the reported efficacy for these compounds:
>  <Compound>
COc1nnc2ccc(N3CCC(c4ccc(OCCN5CCN(C)C(=O)[C@H]5C)cc4)CC3)nn12 [AZD-5153 6-Hydroxy-2-naphthoic acid]

>  <Result>
-68.6%

$$$$
>  <Compound>
Cc1n[nH]c2ccc(-c3cncc(OC[C@@H](N)Cc4ccccc4)c3)cc12

>  <Result>
-69.5%

$$$$

Query efficacy for CC(=O)O[C@H]1C(=O)[C@]2(C)[C@@H](O)C[C@H]3OC[C@@]3(OC(C)=O)C2[C@H](OC(=O)C4=CC=CC=C4)[C@]5(O)C[C@H](OC(=O)[C@H](O)[C@@H](NC(=O)C6=CC=CC=C6)C7=CC=CC=C7)\C(=C1/C5(C)C)C (stereo partly drawn) -68.3%

---

Each entry below carries its reported efficacy.
System: HCT116
Test: efficacy (fitted maximal change in viability relative to DMSO control); higher = less cytotoxic (negative = loss of viability)
Settings: 48 h
Counter-ions that a name gives are not always drawn.
Respond with the bare value in %.

Consider the reported efficacy for these compounds:
>  <Compound>
O=C(/C=C/c1ccc2ccc(C(F)(F)F)cc2n1)c1ccncc1

>  <Quantity Kind>
efficacy

>  <Readout Number>
-89

$$$$
>  <Compound>
CC(C)(C)NC(=O)[C@H]1CC[C@H]2[C@@H]3CC[C@H]4NC(=O)\C=C/[C@]4(C)[C@H]3CC[C@]12C [Finasteride]

>  <Quantity Kind>
efficacy

>  <Readout Number>
-16.1

$$$$
>  <Compound>
CCCCc1oc2ccccc2c1C(=O)c1cc(I)c(OCCN(CC)CC)c(I)c1 [Amiodarone hydrochloride]

>  <Quantity Kind>
efficacy

>  <Readout Number>
-71.8

$$$$
>  <Compound>
CC(C)(C)C(=O)CN1C(=O)[C@H](NC(=O)Nc2cccc(C(=O)O)c2)CN(C2CCCCC2)c2ccccc21 [Nastorazepide]

>  <Quantity Kind>
efficacy

>  <Readout Number>
-4.67

$$$$
>  <Compound>
CN[C@@H](C)[C@H]1[C@H](O)C[C@@]2(C)[C@@H]3CC[C@H]4C(C)(C)[C@@H](NC)CC[C@@]45C[C@@]35CC[C@]12C

>  <Quantity Kind>
efficacy

>  <Readout Number>
-29.5

$$$$
>  <Compound>
O=C(O)CNC(=O)c1ncc(-c2cccc(Cl)c2)cc1O

>  <Quantity Kind>
efficacy

>  <Readout Number>
-15.6

$$$$
>  <Compound>
C[C@]12CC[C@@H]3c4ccc(O)cc4CC[C@H]3[C@@H]1CC[C@@H]2O

>  <Quantity Kind>
efficacy

>  <Readout Number>
-60.4

$$$$
>  <Compound>
O=C(O)CCCCCC(=O)NN=C1CCCC1 [IDE-2]

>  <Quantity Kind>
efficacy

>  <Readout Number>
-8.18

$$$$
>  <Compound>
CN(C)C(=N)NC(=N)N

>  <Quantity Kind>
efficacy

>  <Readout Number>
-21.8

$$$$
>  <Compound>
CN(C)C/C=C/C(=O)Nc1cc2c(Nc3ccc(F)c(Cl)c3)ncnc2cc1O[C@H]1CCOC1

>  <Quantity Kind>
efficacy

>  <Readout Number>
-100

$$$$

Query efficacy for `COc1ccc2[nH]cc(CCNC(C)=O)c2c1` -10.4

Query efficacy for CCC1=C(C)CN(C(=O)NCCc2ccc(S(=O)(=O)NC(=O)N[C@H]3CC[C@H](C)CC3)cc2)C1=O [Glimepiride] -14.8

Query efficacy for `N#Cc1ccc(NC(=O)Nc2ccccc2Br)c2nn[nH]c12` -26

Query efficacy for `Cc1ccc(F)c(NC(=O)Nc2ccc(-c3cccc4[nH]nc(N)c34)cc2)c1` -90.4

Query efficacy for `CC[C@@](C)(Nc1ccnc(-c2c[nH]c3ncccc23)n1)C(=O)NCC(F)(F)F` -56.7

Query efficacy for `Cc1ccc(NC(=O)Nc2cc(C(F)(F)F)ccc2F)cc1Nc1ccc2c(c1)NC(=O)/C2=C\c1ccc[nH]1` -97.5

Query efficacy for `CCOC(=O)c1c(CSc2ccccc2)n(C)c2cc(Br)c(O)c(CN(C)C)c12` -75.8

Query efficacy for CC1(C)C(=O)N(c2ccc(C#N)c(C(F)(F)F)c2)C(=S)N1Cc1ccc(-c2c[nH]nn2)cc1 [BG-15a] -68.8

Query efficacy for `CNC(=O)CN1CCC(Oc2cc3c(Nc4cccc(Cl)c4F)ncnc3cc2OC)CC1` -49.3

---

System: HCT116
Test: AC50 cell viability (CellTiter-Glo); higher = less potent
Conditions: 48 h
Where a name gives a salt, the structure may show the parent alone.
Quantity Kind: AC50 cell viability

Consider the reported AC50 cell viability for these molecules:
>  <Molecule>
O=C(O)c1ccc2cc(-c3ccc(O)c(C45CC6CC(CC(C6)C4)C5)c3)ccc2c1 [AHPN]

>  <Measured Target>
HCT116

>  <Result>
2.95 µM

$$$$
>  <Molecule>
O=C(Nc1ccc([S+](=O)([O-])N2CCOCC2)cc1)c1cc(Cl)ccc1N[S+](=O)([O-])c1ccc(Cl)s1 [Ataciguat]

>  <Measured Target>
HCT116

>  <Result>
23.5 µM

$$$$
>  <Molecule>
Oc1cc(O)cc(/C=C/c2ccc(O)c(O)c2)c1 [Piceatannol]

>  <Measured Target>
HCT116

>  <Result>
26.3 µM

$$$$

Query AC50 cell viability for Oc1cccc(-c2nc(N3CCOCC3)c3oc4ncccc4c3n2)c1 [PI-103] 1.32 µM

Query AC50 cell viability for C[C@H](NC(=O)[C@@H]1C[C@@H](O)CN1C(=O)[C@@H](NC(=O)COCCCOCCNC(=O)C[C@@H]2\N=C(C3=CC=C(Cl)C=C3)/C4=C(SC(=C4C)C)[N]5C(=NN=C25)C)C(C)(C)C)C6=CC=C(C=C6)C7=C(C)N=CS7 [ARV-771] 0.148 µM

Query AC50 cell viability for `Oc1ccc(C2CCN(c3ccnc4ccccc34)CC2)cc1O` 11.8 µM

Query AC50 cell viability for Cc1ccc(C(=O)Nc2ccc(CN3CCN(C)CC3)c(C(F)(F)F)c2)cc1C#Cc1cnc2cccnn12 [Ponatinib] 1.48 µM

Query AC50 cell viability for O=[S+]([O-])(c1cccc2cnccc12)N1CCCNCC1 [Fasudil hydrochloride] 18.6 µM

Query AC50 cell viability for CN1CCN(C(=O)c2ccc3cc(CCNc4ncnc5ccc(C#N)cc45)ccc3c2)CC1 [Senexin-B] 13.2 µM

Query AC50 cell viability for `Cc1cccc(Nc2nc(N[C@@H]3CCCC[C@@H]3N)ncc2C(N)=O)c1` 7.42 µM

Query AC50 cell viability for N[S+](=O)([O-])c1ccc(Nc2nc(OCC3CCCCC3)c3[nH]cnc3n2)cc1 [NU-6102] 16.6 µM

Query AC50 cell viability for C=CC(=O)N1CC[C@@H](Oc2nc(Nc3ccc(N4CCC(N5CCN(C)CC5)CC4)cc3)c(C(N)=O)nc2CC)C1 [Naquotinib mesylate] 3.23 µM

---

Tested on: HCT116
Experiment: efficacy (fitted maximal change in viability relative to DMSO control); higher = less cytotoxic (negative = loss of viability)
Conditions: 48 h
Param threshold (-50%) applies to efficacy; output satisfied when value >= threshold, not satisfied when value < threshold.

Answered examples (2):
>  <Compound>
Cc1cc2c(C(N)=O)cccc2n1-c1nc2c(c(NCc3ccccc3)n1)COCC2

>  <Class Assignment>
not satisfied

$$$$
>  <Compound>
CCCCc1ccc2[nH]c(NC(=O)OC)nc2c1

>  <Class Assignment>
not satisfied

$$$$

API: above_or_equal(metric=efficacy, cutoff=-50%) for item CNC(=O)c1ccc(N2C(=S)N(c3cnc(C#N)c(C(F)(F)F)c3)C(=O)C23CCC3)cc1F [Apalutamide] satisfied

API: above_or_equal(metric=efficacy, cutoff=-50%) for item `N[S+](=O)([O-])c1ccc(Nc2nc(OCC3CCCCC3)c3[nH]cnc3n2)cc1` not satisfied

API: above_or_equal(metric=efficacy, cutoff=-50%) for item `c1ccc(CNc2nc(N3CCOc4ccccc43)nc3c2CCCC3)cc1` satisfied

---

Each entry below carries its reported efficacy.
Test system: HCT116
Experiment: efficacy (fitted maximal change in viability relative to DMSO control); higher = less cytotoxic (negative = loss of viability)
Conditions: 48 h
Respond with the bare value in %.

Consider the reported efficacy for these compounds:
>  <Compound>
CCOC(CN1C(=O)[C@](CC(=O)Nc2ccc(C)cc2)(NC(=O)Nc2ccc(C)cc2)c2ccccc21)OCC [AG-041R]

>  <Quantity Kind>
efficacy

>  <Unit Of Measurement>
%

>  <Readout Number>
-78.5

$$$$
>  <Compound>
COc1cc([S+](C)(=O)[O-])ccc1Nc1nc2ccc(-c3ccc(NC(=O)[C@H](C)c4ccc(F)cc4)cc3)cn2n1

>  <Quantity Kind>
efficacy

>  <Unit Of Measurement>
%

>  <Readout Number>
-30.6

$$$$

For the next question, use this compound.
Give efficacy only, for C[N]1N=C(C)C2=C1OC(=C(/C#N)C2C3=CC=C(C=C3)C(F)(F)F)/N (stereo not drawn) , using HCT116 data. -30.8
